assay text: ATG_VDRE_CIS: Attagene CIS-FACTORIAL HepG2 Assay for human Vitamin D Receptor Element (VDRE) (AID 2282968)
settings: HepG2 VDRE cis-reporter transcription, actives raise or lower the signal
Calls of active or inactive are those of the source. How the source made its calls: active means hit-call score of the fitted dose curve at least 0.9, where 1 is the maximum; inactive means score below 0.9.
Choose the fitting class; nothing outside active, inactive is accepted.

# lookup: test call for O=C(Nc1ccccc1-c1ccc(Cl)cc1)c1cccnc1Cl active

Short answer needed: outcome of this test for Clc1nc(Cl)nc(Nc2ccccc2Cl)n1 ? inactive

Hi team, can someone confirm the assay call for O=C1C2CC=CCC2C(=O)N1SC(Cl)(Cl)Cl (configuration not stated) ? inactive

What classification did CCOc1nc(F)cc2nc(S(=O)(=O)Nc3c(Cl)cccc3Cl)nn12 end up with in this test? inactive

State the result this test recorded for COC(=O)c1c(C(F)F)nc(C(F)(F)F)c(C2=NCCS2)c1CC(C)C . active

Fill in: this test's call for COCC(C)N(C(=O)CCl)c1c(C)csc1C (configuration not stated) is ___ active

Which outcome did this test record for the compound Cc1ccc(N=CN(C)C=Nc2ccc(C)cc2C)c(C)c1 ? inactive

Dear colleague, could you share the recorded outcome for Cc1nc(N(C)C)nc(OC(=O)N(C)C)c1C when you have a moment? inactive

Which result was noted for this compound in the test: C=C(C)CN(CC)c1c([N+](=O)[O-])cc(C(F)(F)F)cc1[N+](=O)[O-] active

How was Nc1c(Cl)c(F)nc(OCC(=O)O)c1Cl classified in this test? inactive

Which result was noted for this compound in the test: CC(C)Oc1cccc(NC(=O)c2ccccc2C(F)(F)F)c1 active

Dear colleague, could you share the recorded outcome for CCOc1cc(C(C)(C)C)ccc1C1COC(c2c(F)cccc2F)=N1 (configuration not stated) when you have a moment? active

Fill in: this test's call for CNC(=O)N(C)c1nnc(C(C)(C)C)s1 is ___ inactive

Tell me the assay call for CC(C)N1C(=O)N(c2ccccc2)CSC1=NC(C)(C)C please. inactive

Name the outcome recorded for CCC(C)n1c(=O)[nH]c(C)c(Br)c1=O (configuration not stated) in the assay. inactive

I would be grateful if you could indicate the recorded call for COc1cc(OC)nc(NC(=O)NS(=O)(=O)c2ncccc2OCC(F)(F)F)n1 . inactive

Answer briefly: the call reported for CS(=O)(=O)c1cc(C(F)(F)F)ccc1C(=O)c1cnoc1C1CC1 in this assay. inactive

Kindly provide the recorded test outcome for the following compound: CN=C=S active

// param item: Cc1cc(C)nc(Nc2ccccc2)n1 ; yields the recorded call active

Dear colleague, could you share the recorded outcome for COC(=O)NS(=O)(=O)c1ccc(N)cc1 when you have a moment? inactive

Can you look up the reported call for CC(C)N1C(=O)c2ccccc2NS1(=O)=O for me? active

Which result was noted for this compound in the test: CCCC(=NOCC)C1=C(O)CC(CC(C)SCC)CC1=O (configuration not stated) inactive

This collection of values is drawn from PubChem BioAssay (EPA / NIEHS).
